- Target Under Test: BRD4 first bromodomain (BD1), N44-E168 (human, UniProt O60885-1 44-168)
- Test Summary: ITC; peptide in the syringe titrated into protein in the cell; 15 °C; 50 mM HEPES pH 7.5, 150 mM NaCl; single binding site model
- Experimental Setup: both partners purified
Where no end group is shown, it is not given here.
Property: stoichiometry N
Answers are plain numbers.

Quick batch: stoichiometry N for everything below.
1. RRRK(Ac)RFK(Ac)RHQ [FOXD3 K235ac/K238ac peptide]
2. LTNK(Ac)GHK(Ac)WKQ [DMTF1 K147ac/K150ac peptide]
3. IHCK(Ac)AGK(Ac)GRT [PTEN K125ac/K128ac peptide]
4. DGGK(Ac)SGK(Ac)APR [FOXO3 K242ac/K245ac peptide]

[0.64, 0.99, 0.81, 0.49]

Fill in stoichiometry N for each of the 2 binders listed.
1. HFAK(Ac)ARK(Ac)VPS [FOXN3 K426ac/K429ac peptide]
2. NSNK(Ac)YTK(Ac)SRG [FOXO3 K259ac/K262ac peptide]

1: 0.62; 2: 0.58

From: paper PMC6375729
